// data source = patent US20240158505A1

- experimental.system: B7-H3 expressed on the cell membrane (MCF-7, RKO and RKO/B7H3 cell lines) (UniProt Q5ZPR3)
- Sequence (Q5ZPR3 29-534): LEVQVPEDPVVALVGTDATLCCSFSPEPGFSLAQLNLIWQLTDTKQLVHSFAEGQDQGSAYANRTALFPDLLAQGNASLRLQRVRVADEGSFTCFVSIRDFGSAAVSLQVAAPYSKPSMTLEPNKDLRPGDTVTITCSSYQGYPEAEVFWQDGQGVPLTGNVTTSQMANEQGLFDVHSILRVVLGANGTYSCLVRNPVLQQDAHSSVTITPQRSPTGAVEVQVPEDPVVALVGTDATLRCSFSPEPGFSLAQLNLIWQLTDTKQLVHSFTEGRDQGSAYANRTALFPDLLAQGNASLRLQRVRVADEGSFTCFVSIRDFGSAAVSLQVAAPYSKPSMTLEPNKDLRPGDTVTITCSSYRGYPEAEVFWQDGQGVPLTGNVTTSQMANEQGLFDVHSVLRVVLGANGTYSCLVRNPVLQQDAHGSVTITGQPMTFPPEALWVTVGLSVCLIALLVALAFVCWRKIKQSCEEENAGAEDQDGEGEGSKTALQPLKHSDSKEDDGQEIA
- method.summary: cell ELISA on fixed RKO/B7H3 cells
pEC50: −log10 of the molar value.
readout.type: pEC50

binder	readout.type	test.result
#9 antibody (antibody, V domains shown) VH: EVQLLESGGGLVQPGGSLRLSCAASGFTFSSYAMNWVRQAPGKGLEWVSTISGSGGQTYYADSVKGRFTISRDNSKNTLYLQMNSLRAEDTAVYYCARWRSIWAFDYWGQGTLVTVSS VL: QSVLTQPPSASGTPGQRVTISCSDNNIGSKSVHWYQQLPGTAPKLLIYDNNKRPSGVPDRFSGSKSGTSASLAISGLRSEDEADYYCGTWDDSLSGPVFGGGTKLTVL	pEC50	10.30
#8 antibody (antibody, V domains shown) VH: EVQLLESGGGLVQPGSSLRLSCAASGFTFSSYWISWVRQAPGKGLEWVSEISPSGNTNYNPSLKSRFTISRDNSKNTLYLQMNSLRAEDTAVYYCAREVGDLLDYWGQGTLVTVSS VL: QSVLTQPPSASGTPGQRVTISCSGSNIGNNYVSWYQQLPGTAPKLLIYQDSKRPSGVPDRFSGSKSGTSASLAISGLRSEDEADYYCLVWDRSSDHFVFGGGTKLTVL	pEC50	10.22
#3 antibody (antibody, V domains shown) VH: EVQLLESGGGLVQPGGSLRLSCAASGFTFSTYYMTWVRQAPGKGLEWVSIINPRGGSTSYAEKFQGRFTISRDNSKNTLYLQMNSLRAEDTAVYYCARWNLGMDVWGQGTLVTVSS VL: EIVLTQSPGTLSLSPGERATLSCRVSQSISSYLNWYQQKPGQAPRLLIYDASHRATGIPDRFSGSGSGTDFTLTISRLEPEDFAVYYCQQYYAPSVTFGQGTKVEIK	pEC50	10.19
